Taken from PubChem BioAssay (NCI).

Tested on: UO-31 renal
experimental.protocol: NCI tumour cell line growth inhibition, 48 h
measured.quantity: TGI

Oc1ccc(/C=C/c2cccc(/C=C/c3ccc(O)c(O)c3)n2)cc1O: 11.2 µM

Working through the 6 molecules below one at a time, give TGI for each.
1. C1=Cc2nc1c(-c1ccccc1)c1ccc([nH]1)c(-c1ccccc1)c1nc(c(-c3ccccc3)c3ccc([nH]3)c2-c2ccccc2)C=C1
2. O=C(CC1(O)C(=O)Nc2ccc(F)cc21)c1ccc(C(=O)NCC2CCC3(CC2)OOC2(CCCCC2)OO3)cc1 (configuration not stated)
3. Nc1ccc(-c2nc3ccc(F)cc3s2)cc1Cl
4. CCOc1cccc2c1N[S@@](=O)S2
5. CC1CN=C(Nc2cccc(F)c2)S1 (configuration not stated)
6. O=c1[nH]c(SCc2cccc([N+](=O)[O-])c2)nc2nc[nH]c12

> 100 µM
2.28 µM
> 100 µM
> 100 µM
> 100 µM
> 100 µM

* * *

System: COLO 205 colon
experimental.protocol: NCI tumour cell line growth inhibition, 48 h
measured.quantity: TGI

Consider the reported TGI for these compounds:
O=c1c2c(-c3ccccc3)c3ccccc3nc2cnn1-c1ccccc1: > 100 µM
O=C1CCC[C@H]2O[C@@H](COC(=O)c3ccccc3)C[C@H]2O1: > 100 µM
COc1ccc(/C=C(\NC(=O)c2ccccc2)c2nc3ccccc3[nH]2)cc1OC: > 100 µM
Cc1nc2ccc(S(=O)(=O)NS(=O)(=O)c3ccc(-c4ccccc4)cc3)cc2c(=O)n1NS(=O)(=O)c1ccc(-c2ccccc2)cc1: > 100 µM
COC(=O)c1cc(=O)nc2cc3cccccc3n12: > 100 µM

Working through the 4 compounds below one at a time, give TGI for each.
1. O=C(Nc1cccc(F)c1)c1cc2ccc(O)cc2oc1=Nc1cccc(F)c1
2. N#CCCN(CCC#N)c1ccc(/C=C2\N=C(c3ccccc3)N(c3ccc(C(=O)O)cc3)C2=O)cc1
3. O=c1[nH]c(SCc2cccc([N+](=O)[O-])c2)nc2nc[nH]c12
4. O=c1[nH]nc(-c2ccccc2)n1/N=C/c1ccccc1O

["> 100 µM", "> 100 µM", "> 100 µM", "> 100 µM"]

* * *

Test system: NCI-H522 lung
experimental.protocol: NCI tumour cell line growth inhibition, 48 h
measured.quantity: TGI

Consider the reported TGI for these molecules:
COc1ccc(/C=C(\NC(=O)c2ccccc2)c2nc3ccccc3[nH]2)cc1OC: > 100 µM
CC1(C)OCC(C2OC3OC(C)(C)OC3C2c2ccccc2)O1 (centres undefined): > 100 µM
c1ccc2c(c1)NCc1cc3ccccc3nc1O2: > 100 µM
Nc1[nH]c(=O)nc2snnc12: > 100 µM

Working through the 5 molecules below one at a time, give TGI for each.
1. C1=Cc2nc1c(-c1ccccc1)c1ccc([nH]1)c(-c1ccccc1)c1nc(c(-c3ccccc3)c3ccc([nH]3)c2-c2ccccc2)C=C1
2. COc1ccc(O)c(C(=O)CCC(=O)O)c1
3. COc1ccc(-c2c(-c3ccccc3)c(C)c3ccccn23)cc1
4. Nc1nc2ccc(Sc3ccc4nc(N)[nH]c(=O)c4c3)cc2c(=O)[nH]1
5. c1ccc2cc3c(NC4=NCCO4)cccc3cc2c1

["> 100 µM", "> 100 µM", "> 100 µM", "> 100 µM", "> 100 µM"]
